- TARGET_UNDER_TEST: CYP2D6 (Homo sapiens)
- ASSAY_SUMMARY: Inhibition of CYP2D6 (unknown origin) expressed in insect cell microsomes at 10 uM by fluorescence based assay relative to control
- Type: ADME, Microsome
- TEST_SETTINGS: recombinant CYP2D6 expressed in insect cell microsomes
READOUT_NAME: inhibition at 10 µM
Provide the measurement as a number trailed by its unit.

CCOC(=O)C1=C(C)NC(=O)NC1c1ccsc1 (racemic)
22%

Moving on to another compound below.
[in] Any idea what inhibition at 10 µM was measured for CC1=C(C(=O)OC(C)C)C(c2ccco2)NC(=S)N1 (racemic) ?
[out] 12%

====

Recorded inhibition by entry
- TARGET_UNDER_TEST: Adenosine receptor A1 (Homo sapiens) (UniProt P30542)
- Sequence (whole entry): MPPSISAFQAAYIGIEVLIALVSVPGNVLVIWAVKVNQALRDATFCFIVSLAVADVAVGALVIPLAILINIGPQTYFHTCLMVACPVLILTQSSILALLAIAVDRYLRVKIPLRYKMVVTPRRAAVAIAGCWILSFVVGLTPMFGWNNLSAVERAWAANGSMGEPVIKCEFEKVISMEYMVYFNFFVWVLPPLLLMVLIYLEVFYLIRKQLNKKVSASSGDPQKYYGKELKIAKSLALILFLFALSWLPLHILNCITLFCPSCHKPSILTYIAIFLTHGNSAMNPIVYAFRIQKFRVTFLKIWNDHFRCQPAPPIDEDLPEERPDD
- ASSAY_SUMMARY: Displacement of [3H]DPCPX from human adenosine A1 receptor expressed in CHO cell membranes at 1 uM incubated for 60 mins by scintillation counting method
- TEST_SETTINGS: Cell membrane
# unit: % | format: bare number

CCC(C)OC(=O)C1=C(C)NC(=O)NC1c1ccoc1 (racemic)
13
CCCOC(=O)C1=C(C)NC(=S)NC1c1cccs1 (racemic)
7
COC(=O)C1=C(C)NC(=O)NC1c1cccs1 (racemic)
6
CCOP(=O)(OCC)C1=C(C)NC(=O)NC1c1ccco1 (racemic)
3

[in] Any idea what inhibition was measured for CCCOC(=O)C1=C(C)NC(=O)NC1c1cccs1 (racemic) ?
[out] 43

[in] Any idea what inhibition was measured for CC1=C(C(=O)OCC(C)C)C(c2ccco2)NC(=O)N1C (racemic) ?
[out] 13

====

- TARGET_UNDER_TEST: CYP2D6 (Homo sapiens, UniProt P10635)
- Sequence (P10635 whole entry): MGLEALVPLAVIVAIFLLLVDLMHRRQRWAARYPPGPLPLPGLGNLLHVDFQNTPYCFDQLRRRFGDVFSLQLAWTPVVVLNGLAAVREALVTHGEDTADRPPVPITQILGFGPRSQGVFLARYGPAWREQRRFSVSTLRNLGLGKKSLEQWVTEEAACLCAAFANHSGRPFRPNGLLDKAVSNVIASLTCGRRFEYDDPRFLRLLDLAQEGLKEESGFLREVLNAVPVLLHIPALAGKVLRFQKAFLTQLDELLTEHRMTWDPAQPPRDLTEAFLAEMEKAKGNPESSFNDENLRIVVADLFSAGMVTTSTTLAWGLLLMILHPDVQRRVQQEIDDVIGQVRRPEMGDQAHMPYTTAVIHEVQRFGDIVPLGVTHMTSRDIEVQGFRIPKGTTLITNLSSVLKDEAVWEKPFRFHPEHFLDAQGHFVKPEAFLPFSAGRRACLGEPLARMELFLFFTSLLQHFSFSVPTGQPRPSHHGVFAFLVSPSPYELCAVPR
- ASSAY_SUMMARY: Inhibition of CYP2D6 (unknown origin) expressed in insect cell microsomes at 1 uM by fluorescence based assay relative to control
- Format: ADME, Microsome
- TEST_SETTINGS: recombinant CYP2D6 expressed in insect cell microsomes
READOUT_NAME: inhibition at 1 µM (%)
# unit: % | format: bare number

CCOC(=O)C1=C(C)NC(=O)NC1c1ccsc1 (racemic)
15

[in] Any idea what inhibition at 1 µM was measured for CC1=C(C(=O)OC(C)C)C(c2ccco2)NC(=S)N1 (racemic) ?
[out] 15

====

Target chain: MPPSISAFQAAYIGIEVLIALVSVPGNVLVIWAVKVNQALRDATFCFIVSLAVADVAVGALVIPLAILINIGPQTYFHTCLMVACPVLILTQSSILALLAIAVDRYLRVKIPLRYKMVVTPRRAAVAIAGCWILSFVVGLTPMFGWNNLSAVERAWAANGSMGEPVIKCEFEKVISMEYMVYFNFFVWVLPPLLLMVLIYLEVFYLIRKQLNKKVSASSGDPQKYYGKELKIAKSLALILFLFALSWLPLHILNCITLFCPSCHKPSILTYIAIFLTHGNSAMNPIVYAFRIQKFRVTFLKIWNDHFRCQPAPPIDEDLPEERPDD
READOUT_NAME: Ki
Provide the measurement as a number trailed by its unit.

[in] Any idea what Ki was measured for CC1=C(C(=O)OCc2ccccc2)C(c2ccco2)NC(=O)N1C (racemic) ?
[out] 1.74 µM
